Cited source: ChEMBL document CHEMBL5226357

Catalogue of pKi readings, one per entry.
experimental.system: Serine/threonine-protein kinase PknB (Mycobacterium tuberculosis, UniProt P9WI81)
Sequence (P9WI81 whole entry, the tested form may be a part): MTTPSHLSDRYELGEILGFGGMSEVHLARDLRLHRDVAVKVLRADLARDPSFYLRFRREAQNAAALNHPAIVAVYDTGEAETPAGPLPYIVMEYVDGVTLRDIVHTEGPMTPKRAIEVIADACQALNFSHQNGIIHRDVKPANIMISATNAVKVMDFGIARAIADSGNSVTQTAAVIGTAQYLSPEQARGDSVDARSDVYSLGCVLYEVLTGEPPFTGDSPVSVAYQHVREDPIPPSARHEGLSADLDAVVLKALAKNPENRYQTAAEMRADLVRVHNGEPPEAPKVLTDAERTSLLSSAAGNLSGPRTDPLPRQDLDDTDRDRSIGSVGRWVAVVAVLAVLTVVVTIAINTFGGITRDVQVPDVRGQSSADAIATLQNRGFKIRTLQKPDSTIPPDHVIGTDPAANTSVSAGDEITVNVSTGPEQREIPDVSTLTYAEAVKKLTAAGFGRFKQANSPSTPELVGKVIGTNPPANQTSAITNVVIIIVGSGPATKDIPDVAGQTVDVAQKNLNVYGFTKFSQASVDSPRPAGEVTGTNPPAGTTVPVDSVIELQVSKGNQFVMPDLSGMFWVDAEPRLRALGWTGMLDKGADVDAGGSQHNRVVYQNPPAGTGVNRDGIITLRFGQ
assay.comment: Inhibition of Mycobacterium tuberculosis recombinant PknB (1 to 331 residues) expressed in Escherichia coli BL21-Rosetta cells using GarA and ATP as substrate preincubated with enzyme for 10 mins followed by substrate addition and measured after 1 hr by ATP-competitive biochemical assay
pKi: −log10 of the molar value.
measured.quantity: pKi

> print(dat)
                         structure.as.smiles                       experimental.system  measured.quantity  op  value.reported
 1  CN1CCN(c2ccc(Nc3nccc(-c4cccc(C#N)c4)n3)cc2C(F)(F)F)CC1  Serine/threonine-protein kinase PknB (Mycobacterium tuberculosis, UniProt P9WI81)                pKi   =            6.15
 2  Cc1ccc(-c2ccnc(Nc3ccc(N4CCN(C)CC4)c(C(F)(F)F)c3)n2)cc1  Serine/threonine-protein kinase PknB (Mycobacterium tuberculosis, UniProt P9WI81)                pKi   =            6.36
 3  COc1cccc(-c2ccnc(Nc3ccc(N4CCN(C)CC4)c(C(F)(F)F)c3)n2)c1  Serine/threonine-protein kinase PknB (Mycobacterium tuberculosis, UniProt P9WI81)                pKi   =            5.72
 4  CN1CCN(c2ccc(Nc3nccc(-c4ccnc(Cl)c4)n3)cc2C(F)(F)F)CC1  Serine/threonine-protein kinase PknB (Mycobacterium tuberculosis, UniProt P9WI81)                pKi   =            6.54
 5  CN1CCN(c2ccc(Nc3nccc(-c4ccc([N+](=O)[O-])cc4)n3)cc2C(F)(F)F)CC1  Serine/threonine-protein kinase PknB (Mycobacterium tuberculosis, UniProt P9WI81)                pKi   =            5.96
 6  CN1CCN(c2ccc(Nc3nccc(-c4cccc(F)c4)n3)cc2C(F)(F)F)CC1  Serine/threonine-protein kinase PknB (Mycobacterium tuberculosis, UniProt P9WI81)                pKi   =            5.74
 7  CN1CCN(c2ccc(Nc3nccc(-c4ccc(F)cc4)n3)cc2C(F)(F)F)CC1  Serine/threonine-protein kinase PknB (Mycobacterium tuberculosis, UniProt P9WI81)                pKi   <            4.92
 8  CN1CCN(c2ccc(Nc3nccc(-c4ccc5ccccc5c4)n3)cc2C(F)(F)F)CC1  Serine/threonine-protein kinase PknB (Mycobacterium tuberculosis, UniProt P9WI81)                pKi   =            6.01
 9  CN1CCN(c2ccc(Nc3nccc(-c4cccc(Cl)c4)n3)cc2C(F)(F)F)CC1  Serine/threonine-protein kinase PknB (Mycobacterium tuberculosis, UniProt P9WI81)                pKi   =            5.92
10  CN1CCN(c2ccc(Nc3nccc(-c4ccnc(NCc5ccccc5)c4)n3)cc2C(F)(F)F)CC1  Serine/threonine-protein kinase PknB (Mycobacterium tuberculosis, UniProt P9WI81)                pKi   =            5.64
11  CN1CCN(c2ccc(Nc3nccc(-c4cccnc4)n3)cc2C(F)(F)F)CC1  Serine/threonine-protein kinase PknB (Mycobacterium tuberculosis, UniProt P9WI81)                pKi   =            6.33
